Kindly find below IC50 information for Tyrosine-protein kinase receptor UFO (Homo sapiens) taken from the literature.

Recorded IC50, per entry:
COc1cc2nccc(Oc3ccc(NC(=O)c4nn(C5CCOCC5)cc(-c5ccc(F)cc5)c4=O)nc3)c2cc1OC
29 nM
COc1cc2nccc(Oc3ccc(NC(=O)c4c(C)n(C)c(C)c(C(=O)N(C)C)c4=O)cc3F)c2nc1OC
100 to 300 nM
C[C@@H](COC(F)F)Nc1ncc2c(O[C@H]3C[C@@H](O)C3)ncc([C@H]3CC[C@H](O)CC3)c2n1
100 to 1000 nM
COC[C@H](C)Nc1ncc2c(-c3cnn(C(C)(C)c4nc(C)co4)c3)cc([C@H]3CC[C@H](O)CC3)n2n1
≤ 100 nM
Cc1c(C(=O)Nc2ccc(Oc3ncnc4[nH]cc(-c5ccccc5)c34)c(F)c2)c(=O)c2cc(Cl)ccc2n1C
1890 nM

For the compound `COC[C@H](C)Nc1ncc2c(-c3cnn(C4(C(=O)N5CCOCC5)CC4)c3)cc([C@H]3CC[C@H](O)CC3)n2n1` , the measured IC50 on Tyrosine-protein kinase receptor UFO (Homo sapiens) was ≤ 100 nM

For the compound `CCOc1ncc([C@H]2CC[C@H](O)CC2)c2nc(N[C@@H](C)CC)ncc12` , the measured IC50 on Tyrosine-protein kinase receptor UFO (Homo sapiens) was ≤ 100 nM
